# Test system: MDA-MB-231
Screen size: about 44,000 sequences; about 2,900 (6.6%) were called active. These entries were drawn from the full list. Entries with a potency or affinity are not part of this list.
Value Kind: GI50
In your response, put the unit directly after the numeric value.

# Substance, GI50
records = [
    ("[Bis(aminomethyl)tetramethylenesilane]tetrachloropaltinum(IV), CHEMBL2146189", "21 µM"),
]

Q: Answer with GI50 of CISPLATIN, CHEMBL11359 measured for MDA-MB-231.
Ans: 22.4 µM

Q: Answer with GI50 of [Bis(aminomethyl)pentamethylenesilane]dichloropaltinum(II), CHEMBL2146202 measured for MDA-MB-231.
Ans: 2.01 µM

Q: Answer with GI50 of [Bis(aminomethyl)pentamethylenesilane]tetrachloropaltinum(IV), CHEMBL2146204 measured for MDA-MB-231.
Ans: 19.6 µM
